- Target System: PAF (h) (Homo sapiens, UniProt P25105)
- Sequence (P25105 whole entry): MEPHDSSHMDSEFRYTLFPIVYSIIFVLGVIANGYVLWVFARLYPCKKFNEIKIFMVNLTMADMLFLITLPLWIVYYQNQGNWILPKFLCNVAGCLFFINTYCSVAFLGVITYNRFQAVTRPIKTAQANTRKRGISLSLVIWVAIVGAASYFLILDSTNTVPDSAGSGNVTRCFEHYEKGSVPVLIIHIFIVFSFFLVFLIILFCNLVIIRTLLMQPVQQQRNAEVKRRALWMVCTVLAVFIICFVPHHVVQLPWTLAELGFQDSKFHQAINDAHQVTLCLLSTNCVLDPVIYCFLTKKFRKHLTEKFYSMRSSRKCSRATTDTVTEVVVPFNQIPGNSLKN
Value Kind: pIC50
Remember, pIC50 is on a log scale: it is -log10 of the molar concentration.

For the record `O=C(Nc1cccnn1)N1CCN([C@@H]2CCOc3cc(C(F)(F)F)ccc32)CC1` , what value of pIC50 is listed for PAF (h) (Homo sapiens, UniProt P25105)?
5.64

----------
- Target System: 5-HT2B (h) (Homo sapiens, UniProt P41595)
- Sequence (P41595 whole entry): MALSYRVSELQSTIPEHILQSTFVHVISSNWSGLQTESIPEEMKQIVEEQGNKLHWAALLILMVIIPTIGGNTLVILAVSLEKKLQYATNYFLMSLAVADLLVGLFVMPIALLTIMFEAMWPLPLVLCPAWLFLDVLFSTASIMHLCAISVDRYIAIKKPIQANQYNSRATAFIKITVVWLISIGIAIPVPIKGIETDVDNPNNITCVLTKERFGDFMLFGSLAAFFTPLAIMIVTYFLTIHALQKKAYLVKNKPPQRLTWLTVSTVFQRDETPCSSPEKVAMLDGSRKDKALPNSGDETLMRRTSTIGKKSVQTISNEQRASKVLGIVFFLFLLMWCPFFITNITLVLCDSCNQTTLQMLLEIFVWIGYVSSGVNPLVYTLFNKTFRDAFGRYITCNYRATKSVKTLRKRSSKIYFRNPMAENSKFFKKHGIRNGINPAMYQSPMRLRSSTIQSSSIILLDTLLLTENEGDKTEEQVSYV
Value Kind: IC50 (µM)
Note: unit µM is implicit; provide only the numeric part.

For the record O=C(Nc1cccnn1)N1CCN([C@@H]2CCOc3cc(C(F)(F)F)ccc32)CC1 [PKM‐833] , what value of IC50 is listed for 5-HT2B (h) (Homo sapiens, UniProt P41595)?
6.4

----------
- Assay Text: Pharmacokinetic study in rats
- Assay type: in vivo
- Settings: male, Sprague-Dawley, rat, plasma, po
Value Kind: bioavailability

Reported bioavailability, molecule `O=C(Nc1cccnn1)N1CCN([C@@H]2CCOc3cc(C(F)(F)F)ccc32)CC1` : ____
41 to 91%

----------
- Target System: UniProtKB P97612
- Sequence (P97612 whole entry): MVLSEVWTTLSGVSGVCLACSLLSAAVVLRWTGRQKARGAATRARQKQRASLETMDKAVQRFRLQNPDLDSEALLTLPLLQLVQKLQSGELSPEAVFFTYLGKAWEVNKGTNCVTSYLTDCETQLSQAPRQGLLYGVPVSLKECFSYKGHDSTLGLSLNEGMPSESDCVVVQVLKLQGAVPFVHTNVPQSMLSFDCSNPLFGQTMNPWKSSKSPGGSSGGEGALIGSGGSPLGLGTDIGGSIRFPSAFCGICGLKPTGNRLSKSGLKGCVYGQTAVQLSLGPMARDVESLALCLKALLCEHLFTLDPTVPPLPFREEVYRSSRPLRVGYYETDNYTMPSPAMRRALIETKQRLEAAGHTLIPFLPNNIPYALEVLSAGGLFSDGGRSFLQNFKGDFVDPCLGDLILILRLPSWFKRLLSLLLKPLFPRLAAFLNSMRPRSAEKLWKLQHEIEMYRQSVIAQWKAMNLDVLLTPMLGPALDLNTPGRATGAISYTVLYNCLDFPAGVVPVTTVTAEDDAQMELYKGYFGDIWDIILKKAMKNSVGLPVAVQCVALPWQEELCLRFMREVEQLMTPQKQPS
Value Kind: IC50 (nM)
Note: unit nM is implicit; provide only the numeric part.

Reported IC50, compound `O=C(Nc1cccnn1)N1CCN([C@@H]2CCOc3cc(C(F)(F)F)ccc32)CC1` : ____
10

----------
- Target System: human FAAH (Homo sapiens)
- Sequence (O00519 1-579): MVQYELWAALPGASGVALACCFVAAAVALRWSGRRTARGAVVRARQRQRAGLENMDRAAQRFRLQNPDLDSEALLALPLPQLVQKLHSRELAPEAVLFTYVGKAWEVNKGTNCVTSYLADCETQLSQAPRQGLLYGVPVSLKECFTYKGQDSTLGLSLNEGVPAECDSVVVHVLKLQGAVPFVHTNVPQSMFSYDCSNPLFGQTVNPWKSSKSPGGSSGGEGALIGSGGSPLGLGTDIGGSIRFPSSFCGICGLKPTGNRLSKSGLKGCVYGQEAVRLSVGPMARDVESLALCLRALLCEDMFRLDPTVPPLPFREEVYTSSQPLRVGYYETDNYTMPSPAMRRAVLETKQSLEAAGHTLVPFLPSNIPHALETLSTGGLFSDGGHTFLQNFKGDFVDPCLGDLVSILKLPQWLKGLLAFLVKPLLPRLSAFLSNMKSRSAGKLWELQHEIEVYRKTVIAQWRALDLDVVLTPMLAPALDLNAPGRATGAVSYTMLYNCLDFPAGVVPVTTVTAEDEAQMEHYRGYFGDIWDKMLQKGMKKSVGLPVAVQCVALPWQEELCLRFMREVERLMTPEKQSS
Value Kind: IC50 (nM)
Note: unit nM is implicit; provide only the numeric part.

Reported IC50, compound `O=C(Nc1cccnn1)N1CCN([C@@H]2CCOc3cc(C(F)(F)F)ccc32)CC1` : ____
8.8
